System: Rattus norvegicus
assayRemarks: Sedative activity in Sprague-Dawley rat assessed as duration time at 2 times of EC50 administered as bolus dose
Assay type: functional
assayEndpoint: Time (s)
Answer with a number only, understood to be in s.

Examples with their reported Time follow.
[[record]]
inputsmiles = "CC(=O)OCn1cnc([C@@H](C)c2cccc(C)c2C)c1.Cl"
testresult = 2483.6

[[record]]
inputsmiles = "COC(=O)OCn1cnc([C@@H](C)c2cccc(C)c2C)c1.Cl"
testresult = 2017.2

[[record]]
inputsmiles = "CCOC(=O)OCn1cnc([C@@H](C)c2cccc(C)c2C)c1.Cl"
testresult = 2887.7


Next item in the queue.
Query: Endpoint output: Time of "Cc1cccc([C@H](C)c2cn(COC(=O)OC3CCC3)cn2)c1C.Cl" . Value?
Result: 3189.5

Source: ChEMBL document CHEMBL5252653
